// values below are reported Selectivity Index
# measurement protocol: Selectivity index, ratio of HC50 for human RBC to IC50 for promastigotes of Leishmania amazonensis IFLA/BR/67/PH8
Answer field: number only, no words.

So what's the measured Selectivity Index for this one? N#Cc1c(/N=C/c2cc3ccccc3[nH]2)sc2c1CCCCC2 97.9

Others:
Endpoint output: Selectivity Index of N#Cc1c(/N=C/c2ccccc2)sc2c1CCCC2 . Value? 11.1

Fill in the blank: the reported Selectivity Index of N#Cc1c(/N=C/c2ccc3ncccc3c2)sc2c1CCC2 is ____. 12.7

What Selectivity Index value was documented for this compound, N#Cc1c(/N=C/c2ccc3ncccc3c2)sc2c1CCCCC2 ? 4.35

Find the recorded Selectivity Index belonging to C[C@@H]1[C@H](O)[C@@H](C)/C=C/C=C/C=C/C=C/C=C/C=C/C=C/[C@H](O[C@@H]2O[C@H](C)[C@@H](O)[C@H](N)[C@@H]2O)C[C@@H]2O[C@](O)(C[C@@H](O)C[C@@H](O)[C@H](O)CC[C@@H](O)C[C@@H](O)CC(=O)O[C@H]1C)C[C@H](O)[C@H]2C(=O)O and report it. 68.2

###

# Test system: Leishmania amazonensis
# measurement protocol: Antileishmanial activity against promastigotes of Leishmania amazonensis IFLA/BR/67/PH8 assessed as induction of late apoptosis using Annexin-V/PI staining at 2 times IC50 after 4 hrs by flow cytometry (reference value: 12.05%)
# Assay type: functional
Property: Activity; scope: individual compounds

Any idea what its Activity is? The compound is N#Cc1c(/N=C/c2cc3ccccc3[nH]2)sc2c1CCCCC2 15.6%

Given N#Cc1c(/N=C/c2cc3cc(Br)ccc3[nH]2)sc2c1CCCCC2 , state its recorded Activity. 27.3%

I am curious: what Activity value has been reported for N#Cc1c(/N=C/c2cc3cc(Br)ccc3[nH]2)sc2c1CCCC2 ? 28.5%

Any idea what its Activity is? The compound is C[C@@H]1[C@H](O)[C@@H](C)/C=C/C=C/C=C/C=C/C=C/C=C/C=C/[C@H](O[C@@H]2O[C@H](C)[C@@H](O)[C@H](N)[C@@H]2O)C[C@@H]2O[C@](O)(C[C@@H](O)C[C@@H](O)[C@H](O)CC[C@@H](O)C[C@@H](O)CC(=O)O[C@H]1C)C[C@H](O)[C@H]2C(=O)O [AMPHOTERICIN B] 38.8%

###

Reported Activity values follow for various molecules
# System: Leishmania amazonensis
# measurement protocol: Antileishmanial activity against promastigotes of Leishmania amazonensis IFLA/BR/67/PH8 assessed as induction of late apoptosis using Annexin-V/PI staining at 4 times IC50 after 4 hrs by flow cytometry (reference value: 12.05%)
# Assay type: functional
# number only, unit % dropped from output

Past entries and their recorded results:
Data request, read-out Activity, for N#Cc1c(/N=C/c2cc3cc(Br)ccc3[nH]2)sc2c1CCCCC2 27.1

Item under review: N#Cc1c(/N=C/c2cc3cc(Br)ccc3[nH]2)sc2c1CCCC2 . Reported Activity? 27.2

Entry under review: N#Cc1c(/N=C/c2cc3ccccc3[nH]2)sc2c1CCCCC2 . Reported Activity? 25.2

// next entry
Look at this molecule and give its reported Activity. C[C@@H]1[C@H](O)[C@@H](C)/C=C/C=C/C=C/C=C/C=C/C=C/C=C/[C@H](O[C@@H]2O[C@H](C)[C@@H](O)[C@H](N)[C@@H]2O)C[C@@H]2O[C@](O)(C[C@@H](O)C[C@@H](O)[C@H](O)CC[C@@H](O)C[C@@H](O)CC(=O)O[C@H]1C)C[C@H](O)[C@H]2C(=O)O [AMPHOTERICIN B] 42.2
